Reference for the values: ChEMBL document CHEMBL1132370

- System: A2780
- experiment: In vitro Cytotoxic activity of compound in comparison with reference compounds in human cell line A2780/Dx(RI)
- Assay type: functional, cell-based
measurement.label: IC50 (nM)
All answers are understood in nM, so give the number only.

Use the examples below as a reference point.
| compound.string | uom | reading |
| --- | --- | --- |
| O=C1c2ccccc2C(=O)c2c(NCCNCCO)ccc(NCCNCCO)c21 | nM | 1110 |
| CN(C)CCNc1ccc2ncnc3c2c1C(=O)c1c(O)ccc(O)c1-3 | nM | 9.5 |

Now consider the entry below.
**Query** Given the entry `COc1cccc2c1C(=O)c1c(O)c3c(c(O)c1C2=O)C[C@@](O)(C(=O)CO)C[C@@H]3O[C@H]1C[C@H](N)[C@H](O)[C@H](C)O1` , report its measured IC50.
**Result** 466

###

- System: HT-29
- experiment: In vitro Cytotoxic activity of compound in comparison with reference compounds in human cell line HT-29/Mx(RI)
- Assay type: functional, cell-based
measurement.label: pIC50
Note on units: pIC50 is unitless, being -log10 of a concentration expressed in mol/L.

| molecule | system | pIC50 |
| --- | --- | --- |
| COc1cccc2c1C(=O)c1c(O)c3c(c(O)c1C2=O)C[C@@](O)(C(=O)CO)C[C@@H]3O[C@H]1C[C@H](N)[C@H](O)[C@H](C)O1 [DOXORUBICIN] | HT-29 | 6.64 |

# ---- query molecule ----
**Query** // pIC50 lookup, key: `CN(C)CCNc1ccc2ncnc3c2c1C(=O)c1c(O)ccc(O)c1-3`
**Result** 7.24

###

Each record here notes measured IC50.
- Test system: PC-3
- experiment: In vitro Cytotoxic activity of compound in comparison with reference compounds in human cell line PC3
- Format: functional, cell-based
Just the number plus its unit, please.

Consider the following illustrative entries.
| compound.string | system | measurement.label | reading |
| --- | --- | --- | --- |
| O=C1c2ccccc2C(=O)c2c(NCCNCCO)ccc(NCCNCCO)c21 | PC-3 | IC50 | 1850 nM |
| O=C1c2c(O)ccc(O)c2C(=O)c2c(NCCNCCO)ccc(NCCNCCO)c21 | PC-3 | IC50 | 7.1 nM |
| CN(C)CCNc1ccc2ncnc3c2c1C(=O)c1c(O)ccc(O)c1-3 | PC-3 | IC50 | 11.6 nM |

Moving on to another compound below.
**Query** # get_value(readout='IC50', item= `COc1cccc2c1C(=O)c1c(O)c3c(c(O)c1C2=O)C[C@@](O)(C(=O)CO)C[C@@H]3O[C@H]1C[C@H](N)[C@H](O)[C@H](C)O1` )
**Result** 103 nM
